Data provenance: patent US8691840B2

Record set of Ki for target or system α7 nAChR (Rattus norvegicus (Rat)).
Where a name gives a salt, the structure may show the parent alone.
Please state the figure in nM; there is no need to write the unit.

Study these solved cases before continuing.
O=C(Nc1ccc(-c2ccc(NC(=O)[C@H]3CN4CCC3CC4)cc2)cc1)c1cccc(F)c1 [Example 15, hydrochloride] : 27
CS(=O)(=O)Nc1ccc(-c2ccc(NC(=O)[C@H]3CN4CCC3CC4)cc2)cc1 [Example 2, hydrochloride] : 2

Shift focus to the following entry.
// fetch Ki given entry O=C(Nc1ccc(-c2ccc(NC(=O)[C@H]3CN4CCC3CC4)cc2)cc1)NC1CCCC1 [Example 11, hydrochloride] 16
